Origin of measurements: patent US20260193326A1

- measurement-target: T1, AAV5 (adeno-associated virus 5)
- T1 construct: also called adeno-associated virus serotype 5
- test-name: SPR, AAV amine-coupled to CM5 chip;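 note: nanobodies flowed as analyte at seven concentrations spanning 1–100 nM over immobilized AAV (500–800 RU), kinetic constants derived by fitting the binding curves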
outcome-measure: koff (s⁻¹)
Give your result in s⁻¹ as a bare value.

1. A4-074 (VHH) VHH: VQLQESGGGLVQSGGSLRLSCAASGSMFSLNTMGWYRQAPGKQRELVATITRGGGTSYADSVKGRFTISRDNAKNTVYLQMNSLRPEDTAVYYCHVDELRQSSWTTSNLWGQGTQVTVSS    0.00081
2. A4-091 (VHH) VHH: VQLQESGGGLVQPGGSLRLSCAASGSRFSINTMGWYRQRAGKQRELVATVTRDGSTTYANSVKGRFTISRDNAKNTVYLQMNSLRPEDTAVYYCHVDELRQSTWTTSNLWGQGTQVTVSS    3e-05
3. A4-052 (VHH) VHH: VQLQESGGGLVQPGGSLRLSCAASGSIFIINTMGWYRQAPGKQRELVAAVTRGGSTNYADSVKGRFTISRDNAKNTVYLQMNSLRPEDTAVYYCHVDEVRQSSWTTSNLWGQGTQVTVSS    0.00056

Here's the next entry for you.
In plain terms, A4-073 (VHH) VHH: VQLQESGGGLVQPGGSLRLSCAASGSNFSINTMGWYRQAPGKQREMVATVTRGGSTNYGDFVKGRFTISRDNAKNTVYLQMNSLRPEDTAVYYCHVDEIRQSSWTTSNIWGQGTQVTVSS has a documented koff of 0.00862
